Target: GLP-1 Receptor (Homo sapiens, UniProt P43220)
Sequence (P43220 24-463): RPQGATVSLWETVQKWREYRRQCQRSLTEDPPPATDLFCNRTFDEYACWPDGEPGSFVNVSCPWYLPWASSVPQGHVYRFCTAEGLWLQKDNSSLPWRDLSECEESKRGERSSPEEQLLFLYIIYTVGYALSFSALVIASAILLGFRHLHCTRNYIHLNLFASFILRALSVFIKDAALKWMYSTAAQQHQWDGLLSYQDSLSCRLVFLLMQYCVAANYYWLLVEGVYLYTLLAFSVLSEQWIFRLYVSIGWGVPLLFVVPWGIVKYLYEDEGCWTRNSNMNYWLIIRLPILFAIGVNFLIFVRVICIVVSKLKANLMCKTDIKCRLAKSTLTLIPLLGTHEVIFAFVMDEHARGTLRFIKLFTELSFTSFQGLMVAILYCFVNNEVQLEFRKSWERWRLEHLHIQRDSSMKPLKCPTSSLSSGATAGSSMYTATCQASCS
Experiment: GLP-1R agonist cAMP stimulation assay (Method 3, HEK293/GLP1R/CRE-LUC, HDB)
Assay type: cell-based
Details: HDB HEK293/CRE-Luc cell line, read-out: GLP1R cAMP Stimulation DR: EC50 (nM) [Species: Human, Assay Cell Line: HDB]
Procedure: The methodology for detection of cAMP using EFC requires incubation with 20 μL of cAMP XS+ED/CL lysis cocktail for one hour followed by incubation with 20 μL cAMP XS+EA reagent for three hours at room temperature. Microplates are read following signal generation with a PerkinElmer Envision instrument utilizing chemiluminescent signal detection. Compound activity is analyzed using CBIS data analysis suite (ChemInnovation, CA). […]
We begin with a simple list: items and their reported EC50.

molecule	EC50
CNc1cc(-n2ccn(-c3c4c(nn3-c3cc(C)c(F)c(C)c3)CCN(C(=O)c3cc5cc(C6CCOCC6)ccc5n3C3(c5noc(=O)[nH]5)CC3)[C@H]4C)c2=O)ccc1P(C)(=O)C(C)(C)C (some centres unmarked) [Compound 149a]	0.1 to 0.2 nM

Req: What does the record list as EC50 for Cc1cc(-n2nc3c(c2-n2ccn(-c4ccc(P(C)(C)=O)cc4)c2=O)[C@H](C)N(C(=O)c2cc4cc(C5CCOC(C)(C)C5)ccc4n2[C@@]2(c4noc(=O)[nH]4)C[C@@H]2C)CC3)cc(C)c1F (some centres unmarked) [Compound 102a] ?
Resp: < 0.1 nM

Req: Would you mind telling me what EC50 value was observed for CNc1cc(-n2ccn(-c3c4c(nn3-c3cc(C)c(F)c(C)c3)CCN(C(=O)c3cc5cc(C6CCOCC6)ccc5n3[C@@]3(c5noc(=O)[nH]5)C[C@@H]3C)[C@H]4C)c2=O)ccc1P(C)(=O)C(C)(C)C (some centres unmarked) [Compound 131a] ?
Resp: 0.1 to 0.2 nM

Req: // lookup EC50 for CCP(=O)(CC)c1ccc(-n2ccn(-c3c4c(nn3-c3cc(C)c(F)c(C)c3)CCN(C(=O)c3cc5cc([C@H]6CCOC(C)(C)C6)ccc5n3[C@@]3(c5noc(=O)[nH]5)C[C@@H]3C)[C@H]4C)c2=O)cc1 [Compound 130b]
Resp: < 0.1 nM

Req: // EC50 lookup, key: CCP(=O)(CC)c1ccc(-n2ccn(-c3c4c(nn3-c3cc(C)c(F)c(C)c3)CCN(C(=O)c3cc5cc(C6CCOCC6)ccc5n3[C@@]3(c5noc(=O)[nH]5)C[C@@H]3C)[C@H]4C)c2=O)cc1C(F)F [Compound 142a]
Resp: < 0.1 nM

----------
Biological target: GLP-1 Receptor (Homo sapiens, UniProt P43220)
Assay: GLP-1R agonist cAMP stimulation assay (Method 3, HEK293/GLP1R/CRE-LUC, HDB)
Format: cell-based
Details: HDB HEK293/CRE-Luc cell line, read-out: GLP1R cAMP Stimulation DR: pEC50 (M) [Species: Human, Assay Cell Line: HDB] (converted)
Protocol: The methodology for detection of cAMP using EFC requires incubation with 20 μL of cAMP XS+ED/CL lysis cocktail for one hour followed by incubation with 20 μL cAMP XS+EA reagent for three hours at room temperature. Microplates are read following signal generation with a PerkinElmer Envision instrument utilizing chemiluminescent signal detection. Compound activity is analyzed using CBIS data analysis suite (ChemInnovation, CA). […]
measured_quantity: EC50

compound	measured_quantity	observed_measurement
CNc1cc(-n2ccn(-c3c4c(nn3-c3cc(C)c(F)c(C)c3)CCN(C(=O)c3cc5cc(C6CCOCC6)ccc5n3C3(c5noc(=O)[nH]5)CC3)[C@H]4C)c2=O)ccc1P(C)(=O)C(C)(C)C (some centres unmarked) [Compound 149a]	EC50	1e-10 to 1e-09 M

Okay, next one:
Req: Please give the measured EC50 for this compound: CCP(=O)(CC)c1ccc(-n2ccn(-c3c4c(nn3-c3cc(C)c(F)c(C)c3)CCN(C(=O)c3cc5cc([C@H]6CCOC(C)(C)C6)ccc5n3[C@@]3(c5noc(=O)[nH]5)C[C@@H]3C)[C@H]4C)c2=O)cc1 [Compound 130b]
Resp: ≤ 1e-10 M

----------
Target: UniProt:P43220
Experiment: GLP-1R agonist cAMP stimulation assay (Method 3, HEK293/GLP1R/CRE-LUC, HDB)
Assay type: cell-based
Settings: HDB HEK293/CRE-Luc cell line, read-out: GLP1R cAMP Stimulation DR: pEC50 (M) [Species: Human, Assay Cell Line: HDB] (converted)
measured_quantity: EC50

The following compounds have reported results that may help.
compound	measured_quantity	observed_measurement
Cc1cc(-n2nc3c(c2-n2ccn(-c4ccc(P(C)(C)=O)cc4)c2=O)[C@H](C)N(C(=O)c2cc4cc(C5CCOC(C)(C)C5)ccc4n2[C@@]2(c4noc(=O)[nH]4)C[C@@H]2C)CC3)cc(C)c1F (stereo partly drawn) [Compound 102a]	EC50	≤ 1e-10 M
CCP(=O)(CC)c1ccc(-n2ccn(-c3c4c(nn3-c3cc(C)c(F)c(C)c3)CCN(C(=O)c3cc5cc(C6CCOCC6)ccc5n3[C@@]3(c5noc(=O)[nH]5)C[C@@H]3C)[C@H]4C)c2=O)cc1C(F)F [Compound 142a]	EC50	≤ 1e-10 M

Consider the record given below.
Req: # lookup: EC50 of CNc1cc(-n2ccn(-c3c4c(nn3-c3cc(C)c(F)c(C)c3)CCN(C(=O)c3cc5cc(C6CCOCC6)ccc5n3[C@@]3(c5noc(=O)[nH]5)C[C@@H]3C)[C@H]4C)c2=O)ccc1P(C)(=O)C(C)(C)C (stereo partly drawn) [Compound 131a]
Resp: 1e-10 to 1e-09 M
